Test system: U251 CNS
test_summary: NCI-60 one-dose screen, 48 h (100 = growth as untreated, 0 = no growth, -100 = all killed)
assay_setup: 10 µM unless noted
This is part of a sample that, as a whole, favours compounds with a hit. Of some 83,000 tested, about 20% had one in any assay.
Label MET when growth is strictly below 50%; otherwise label NOT MET.

In plain terms, does O=C(NCCNc1nccc(-c2c(-c3cccc(O)c3)nc3sccn23)n1)c1ccccc1O come in under 50% for growth?
NOT MET

In plain terms, does COc1ccc(Cl)cc1NC(=O)c1cc2c(n1C)-c1nc(NC(=O)C(C)(C)C)sc1CC2 come in under 50% for growth?
NOT MET

In plain terms, does O=S(=O)(CCN1CCOCC1)Nc1cc(-c2ccc3ncnc(Nc4ccc(F)c(Cl)c4)c3c2)cnc1Cl come in under 50% for growth?
MET

In plain terms, does Fc1ccc(Nc2ncnc3ccc(-c4cn[nH]c4)cc23)cc1Cl come in under 50% for growth?
NOT MET

In plain terms, does COc1cc2ncnc(Oc3ccc(NC(=O)Nc4ccc(CN5CCOCC5)c(C(F)(F)F)c4)c4ccccc34)c2cc1OC come in under 50% for growth?
MET

In plain terms, does COc1ccc(SC2c3ccc(O)cc3Oc3nc(N)c(C#N)c(N)c32)cc1 (stereo not given) come in under 50% for growth?
NOT MET

In plain terms, does CN(C)c1ccc(/C=c2\s/c(=C\C(=O)C(C)(C)C)[nH]c2=O)cc1 come in under 50% for growth?
NOT MET

In plain terms, does C=C1c2c(Cl)ccc(O)c2C(O)=C2C(=O)[C@]3(O)C(O)=C(C(N)=O)C(=O)[C@@H](N(C)C)[C@@H]3[C@@H](O)[C@H]12 come in under 50% for growth?
MET

In plain terms, does Nc1ccc(S(=O)(=O)Nc2ccnn2-c2ccccc2)cc1 come in under 50% for growth?
NOT MET

In plain terms, does COc1ccc(C[C@H](N)C(=O)N[C@@H]2[C@@H](CO)OC(n3cnc4c(N(C)C)ncnc43)[C@@H]2O)cc1 (stereo not given in full) come in under 50% for growth?
MET

In plain terms, does Fc1ccc(/C=N/n2c(-c3cc(Cl)cc(Cl)c3Cl)nn(CNc3ccc(Cl)nn3)c2=S)cc1 come in under 50% for growth?
NOT MET

In plain terms, does CCCCn1c(-c2cccc(OC)c2)nc2cc(OC)c(OC)cc2c1=O come in under 50% for growth?
NOT MET

In plain terms, does CCCCOc1c(N)cccc1C(=O)OCCN(CC)CC come in under 50% for growth?
NOT MET

In plain terms, does c1cncc(-c2nc3ccccc3[nH]2)c1 come in under 50% for growth?
NOT MET

In plain terms, does S=c1n(CNc2ccc(Cl)nn2)nc(-c2cc(Cl)cc(Cl)c2Cl)n1/N=C/c1ccc(Cl)cc1 come in under 50% for growth?
NOT MET

In plain terms, does CCc1c2cc(Cl)ccc2n2cc(Cc3ccccc3)[nH]c(=O)c12 come in under 50% for growth?
NOT MET

In plain terms, does NS(=O)(=O)c1ccc(Nc2nc(O)c(/C=C3\C=Nc4ccccc43)s2)cc1 come in under 50% for growth?
NOT MET

In plain terms, does CN1CCN(C(=O)/C=C/c2ccc([N+](=O)[O-])o2)CC1 come in under 50% for growth?
NOT MET

In plain terms, does CC(C)(C)C(=O)/C=c1/[nH]c(=O)/c(=C/c2ccccc2O)s1 come in under 50% for growth?
MET

In plain terms, does Cc1cc(N2CCOCC2)nc(N(CCNc2ccnc3cc(Cl)ccc23)Cc2ccco2)n1 come in under 50% for growth?
MET

In plain terms, does CC1(C)N=C(N)N=C(N)N1c1cccc(CCCCc2ccccc2)c1 come in under 50% for growth?
MET

In plain terms, does COc1ccc(C(=O)NC(=O)Nc2ccc3c(c2)NC(=O)/C3=C\c2[nH]c(C)c(C(=O)O)c2C)c(F)c1 come in under 50% for growth?
MET

In plain terms, does O=C(O)c1cccc2oc(-c3ccccc3O)nc12 come in under 50% for growth?
MET

In plain terms, does CC1(C)N=C(N)N=C(N)N1c1ccc(OCC(=O)Nc2ccccc2)c(Cl)c1 come in under 50% for growth?
MET

In plain terms, does CSc1nc(N)nc2c1ncn2C come in under 50% for growth?
NOT MET

In plain terms, does COc1ccc(-c2cc(-c3nnc(SC/C(=N\O)c4ccccc4)n3-c3ccccc3)c3ccccc3n2)cc1 come in under 50% for growth?
NOT MET

In plain terms, does C=CC(C)(O)CCC1C(=C)CCC2C(C)(C)CCCC12C (stereo not given) come in under 50% for growth?
NOT MET

In plain terms, does Nn1c(CN2CCN(c3cc4c(cc3F)c(=O)c(C(=O)O)cn4C3CC3)CC2)n[nH]c1=S come in under 50% for growth?
NOT MET

In plain terms, does O=C(Nc1cccc(-n2ccc3c(NC(=O)c4ccccc4)nccc32)c1)c1cccc(C(F)(F)F)c1 come in under 50% for growth?
MET

In plain terms, does FC(F)(F)c1cccc([Si](F)(c2cccc(C(F)(F)F)c2)c2cccc(C(F)(F)F)c2)c1 come in under 50% for growth?
NOT MET

In plain terms, does Cc1ccc2nc(-c3ccc(-n4on4-c4ccc(/C=C/c5ccc(-n6on6-c6ccc(-c7nc8ccc(C)cc8s7)cc6)cc5S(=O)(=O)O)c(S(=O)(=O)O)c4)cc3)sc2c1 come in under 50% for growth?
NOT MET

In plain terms, does O=C(Nc1ccc(F)cc1)Nc1ccc(Cl)c([N+](=O)[O-])c1 come in under 50% for growth?
MET

In plain terms, does Cl[C@@H]1CCO[C@H](c2cc3ccccc3c3ccccc23)C1 come in under 50% for growth?
NOT MET

In plain terms, does COc1ccc(/C=C2/C(=O)Nc3cc(Cl)c(-c4csc(N)n4)cc32)cc1 come in under 50% for growth?
MET

In plain terms, does Cc1nccc2c3ccc(OCc4cn(-c5ccc(Br)cc5)nn4)cc3n(CCCc3ccccc3)c12 come in under 50% for growth?
MET

In plain terms, does COCCNC(C(=O)c1ccccc1)c1ccccc1 (stereo not given) come in under 50% for growth?
NOT MET

In plain terms, does CCCN1C(=O)CSC1=Nc1ccc2cc3ccc(N=C4SCC(=O)N4CCC)cc3nc2c1 come in under 50% for growth?
MET

In plain terms, does O=C(Cn1c2ccccc2c2ccncc21)N/N=C\c1ccc2ccccc2c1 come in under 50% for growth?
MET

In plain terms, does CC(C)(CCN=C(N)Nc1ccccn1)c1ccc(C(F)(F)F)cc1 come in under 50% for growth?
MET

In plain terms, does Cc1c(C(C)(C)C)cc(C(C)(C)C)c2c1CN(C)CO2 come in under 50% for growth?
NOT MET
